Recorded values, source patent US12343472B2.

Assay: Blood oxytocin concentration in monkey (EIA)
Type: in vivo, cynomolgus monkey
Conditions: male, cynomolgus monkey, blood; 30 min; intravenous; average n=6
Description: In order to measure the blood oxytocin concentration, blood was collected from the femoral vein with a syringe (dispensed into an EDTA-2K-containing blood collection tube) before administration and 2, 5, 10, 30, 60, 120, 240 and 480 minutes after administration (9 times in total). […] The oxytocin concentration was measured by an EIA method involving an Oxytocin Enzyme Immunoassay Kit: Extraction-Free (Peninsula Laboratories International). […]
endpoint: level at 0.5 h
Answer format: value, then unit.

// query Data request, read-out level at 0.5 h, for CC[C@H](C)[C@@H]1NC(=O)[C@H](Cc2ccc(O)cc2)NC(=O)[C@@H](N)CSSC[C@@H](C(=O)N2CCC[C@H]2C(=O)N[C@@H](CC(C)C)C(=O)NCC(N)=O)NC(=O)[C@H](CC(N)=O)NC(=O)[C@H](CCC(N)=O)NC1=O
// result 10.9 ng/mL
